Protocol details: Stability in human plasma assessed as half life
Assay type: ADME, cell-free
Attribute measured: half-life

[ask] GET /values?readout=half-life&item= Cc1cc(/C=C/C#N)cc(C)c1Nc1ccnc(Nc2ccc(C#N)cc2)n1
[reply] > 5 h

[ask] GET /values?readout=half-life&item= COc1cc(-c2ccc(C#N)cc2)ccc1/C(=N\N)c1ccnc(Nc2ccc(C#N)cc2)n1
[reply] > 5 h

[ask] GET /values?readout=half-life&item= Cc1cc(C#N)cc(C)c1Oc1nc(Nc2ccc(C#N)cc2)nc(N)c1Br
[reply] > 5 h

* * *

Protocol details: Stability in human plasma assessed as parent compound remaining measured at 120 mins
Assay type: ADME, cell-free
Test parameters: read-out: Stability
Attribute measured: remaining at 2 h

[ask] GET /values?readout=remaining at 2 h&item= COc1cc(-c2ccc(C#N)cc2)ccc1/C(=N\N)c1ccnc(Nc2ccc(C#N)cc2)n1
[reply] 98.2%

[ask] GET /values?readout=remaining at 2 h&item= Cc1cc(C#N)cc(C)c1Oc1nc(Nc2ccc(C#N)cc2)nc(N)c1Br [ETRAVIRINE]
[reply] 92.1%

[ask] GET /values?readout=remaining at 2 h&item= Cc1cc(/C=C/C#N)cc(C)c1Nc1ccnc(Nc2ccc(C#N)cc2)n1 [RILPIVIRINE]
[reply] 95.3%

* * *

System: Human immunodeficiency virus 1
Protocol details: Antiviral activity against HIV-1 harboring Y188L mutant infected in human MT4 cells assessed as inhibition of virus-induced cytopathic effect by MTT assay
Test parameters: Human immunodeficiency virus 1, MT4
Could you please report measured EC50 for the items listed next?
Report as a plain number; the unit µM is understood.

[ask] GET /values?readout=EC50&item= CNC(c1ccnc(Nc2ccc(C#N)cc2)n1)c1ccc(-c2ccc(C#N)cc2)cc1C(F)(F)F (stereo unspecified)
[reply] 7.51

[ask] GET /values?readout=EC50&item= CNC(c1ccnc(Nc2ccc(C#N)cc2)n1)c1ccc(-c2ccc(C#N)cc2)cc1C (stereo unspecified)
[reply] 9.2

[ask] GET /values?readout=EC50&item= C/N=C(/c1ccnc(Nc2ccc(C#N)cc2)n1)c1ccc(-c2ccc(C#N)cc2)cc1OC
[reply] 4.46

* * *

Target of assay: Human immunodeficiency virus type 1 reverse transcriptase (Human immunodeficiency virus 1) (UniProt Q72547)
Protocol details: Potency index, ratio of Nevirapine IC50 to test compound IC50 for inhibition of wild type HIV-1 Reverse transcriptase
Could you please report measured Ratio IC50 for the items listed next?
Write the number on its own, no unit after it.

[ask] GET /values?readout=Ratio IC50&item= CNC(c1ccnc(Nc2ccc(C#N)cc2)n1)c1ccc(-c2ccc(C#N)cc2)cc1OC(F)(F)F (centres undefined)
[reply] 0.38

[ask] GET /values?readout=Ratio IC50&item= CNC(c1ccnc(Nc2ccc(C#N)cc2)n1)c1ccc(-c2ccc(C#N)cc2)cc1OC (centres undefined)
[reply] 0.78

[ask] GET /values?readout=Ratio IC50&item= CNC(c1ccnc(Nc2ccc(C#N)cc2)n1)c1ccc(-c2ccc(C#N)cc2)cc1C(F)(F)F (centres undefined)
[reply] 1.5

[ask] GET /values?readout=Ratio IC50&item= CNC(c1ccnc(Nc2ccc(C#N)cc2)n1)c1ccc(-c2ccc(C#N)cc2)cc1F (centres undefined)
[reply] 0.96

* * *

Protocol details: Cytotoxicity against human MT4 cells by MTT assay
Format: toxicity, cell-based
Could you please report measured CC50 for the items listed next?
Report as a plain number; the unit µM is understood.

[ask] GET /values?readout=CC50&item= COc1cc(-c2ccc(C#N)cc2)ccc1/C(=N\N)c1ccnc(Nc2ccc(C#N)cc2)n1
[reply] 54

[ask] GET /values?readout=CC50&item= CCCNC(c1ccnc(Nc2ccc(C#N)cc2)n1)c1ccc(-c2ccc(C#N)cc2)cc1C(F)(F)F (centres undefined)
[reply] 90

[ask] GET /values?readout=CC50&item= CCCNC(c1ccnc(Nc2ccc(C#N)cc2)n1)c1ccc(-c2ccc(C#N)cc2)cc1OC(F)(F)F (centres undefined)
[reply] 27

[ask] GET /values?readout=CC50&item= CC(C)NC(c1ccnc(Nc2ccc(C#N)cc2)n1)c1ccc(-c2ccc(C#N)cc2)cc1F (centres undefined)
[reply] 45

[ask] GET /values?readout=CC50&item= CNC(c1ccnc(Nc2ccc(C#N)cc2)n1)c1ccc(-c2ccc(C#N)cc2)cc1OC (centres undefined)
[reply] 13

[ask] GET /values?readout=CC50&item= Cc1cc(-c2ccc(C#N)cc2)ccc1C(NC(C)C)c1ccnc(Nc2ccc(C#N)cc2)n1 (centres undefined)
[reply] 82

[ask] GET /values?readout=CC50&item= CCNC(c1ccnc(Nc2ccc(C#N)cc2)n1)c1ccc(-c2ccc(C#N)cc2)cc1C(F)(F)F (centres undefined)
[reply] 22

[ask] GET /values?readout=CC50&item= N#Cc1ccc(Nc2nccc(/C(=N/N)c3ccc(-c4ccc(C#N)cc4)cc3Cl)n2)cc1
[reply] 212

[ask] GET /values?readout=CC50&item= CC(C)NC(c1ccnc(Nc2ccc(C#N)cc2)n1)c1ccc(-c2ccc(C#N)cc2)cc1Cl (centres undefined)
[reply] 30

[ask] GET /values?readout=CC50&item= C/N=C(/c1ccnc(Nc2ccc(C#N)cc2)n1)c1ccc(-c2ccc(C#N)cc2)cc1OC
[reply] 16

* * *

Could you please report measured IC50 for the items listed next?
Target of assay: Human immunodeficiency virus type 1 reverse transcriptase (Human immunodeficiency virus 1, UniProt Q72547)
Protocol details: Inhibition of wild type HIV-1 Reverse transcriptase
Report as a plain number; the unit nM is understood.

[ask] GET /values?readout=IC50&item= CNC(c1ccnc(Nc2ccc(C#N)cc2)n1)c1ccc(-c2ccc(C#N)cc2)cc1C (stereo not drawn)
[reply] 153

[ask] GET /values?readout=IC50&item= C/N=C(/c1ccnc(Nc2ccc(C#N)cc2)n1)c1ccc(-c2ccc(C#N)cc2)cc1C
[reply] 58

[ask] GET /values?readout=IC50&item= COc1cc(-c2ccc(C#N)cc2)ccc1/C(=N\N)c1ccnc(Nc2ccc(C#N)cc2)n1
[reply] 81

[ask] GET /values?readout=IC50&item= C/N=C(/c1ccnc(Nc2ccc(C#N)cc2)n1)c1ccc(-c2ccc(C#N)cc2)cc1C(F)(F)F
[reply] 180

[ask] GET /values?readout=IC50&item= N#Cc1ccc(Nc2nccc(/C(=N/N)c3ccc(-c4ccc(C#N)cc4)cc3C(F)(F)F)n2)cc1
[reply] 58

[ask] GET /values?readout=IC50&item= CNC(c1ccnc(Nc2ccc(C#N)cc2)n1)c1ccc(-c2ccc(C#N)cc2)cc1C(F)(F)F (stereo not drawn)
[reply] 495

[ask] GET /values?readout=IC50&item= C/N=C(/c1ccnc(Nc2ccc(C#N)cc2)n1)c1ccc(-c2ccc(C#N)cc2)cc1OC
[reply] 61

[ask] GET /values?readout=IC50&item= C/N=C(/c1ccnc(Nc2ccc(C#N)cc2)n1)c1ccc(-c2ccc(C#N)cc2)cc1Cl
[reply] 69

* * *

Protocol details: Stability in human plasma assessed as parent compound remaining measured immediately
Assay type: ADME, cell-free
Test parameters: read-out: Stability
Attribute measured: remaining at 0 min
Your reply should be a number followed by the unit it is expressed in.

[ask] GET /values?readout=remaining at 0 min&item= Cc1cc(/C=C/C#N)cc(C)c1Nc1ccnc(Nc2ccc(C#N)cc2)n1
[reply] 100%

[ask] GET /values?readout=remaining at 0 min&item= COc1cc(-c2ccc(C#N)cc2)ccc1/C(=N\N)c1ccnc(Nc2ccc(C#N)cc2)n1
[reply] 100%

[ask] GET /values?readout=remaining at 0 min&item= Cc1cc(C#N)cc(C)c1Oc1nc(Nc2ccc(C#N)cc2)nc(N)c1Br
[reply] 100%

* * *

Could you please report measured CC50 for the items listed next?
Protocol details: Cytotoxicity against human MT4 cells by MTT assay
Type: toxicity, cell-based
Report as a plain number; the unit µM is understood.

[ask] GET /values?readout=CC50&item= CCCNC(c1ccnc(Nc2ccc(C#N)cc2)n1)c1ccc(-c2ccc(C#N)cc2)cc1OC (centres undefined)
[reply] 14

[ask] GET /values?readout=CC50&item= COc1cc(-c2ccc(C#N)cc2)ccc1C(NC(C)C)c1ccnc(Nc2ccc(C#N)cc2)n1 (centres undefined)
[reply] 20

[ask] GET /values?readout=CC50&item= CNC(c1ccnc(Nc2ccc(C#N)cc2)n1)c1ccc(-c2ccc(C#N)cc2)cc1F (centres undefined)
[reply] 13

[ask] GET /values?readout=CC50&item= N#Cc1ccc(Nc2nccc(C(NCCCO)c3ccc(-c4ccc(C#N)cc4)cc3Cl)n2)cc1 (centres undefined)
[reply] 23

[ask] GET /values?readout=CC50&item= CNC(c1ccnc(Nc2ccc(C#N)cc2)n1)c1ccc(-c2ccc(C#N)cc2)cc1C(F)(F)F (centres undefined)
[reply] 15

[ask] GET /values?readout=CC50&item= N#Cc1ccc(Nc2nccc(C(C#N)c3ccc(-c4ccc(C#N)cc4)cc3F)n2)cc1 (centres undefined)
[reply] 36

[ask] GET /values?readout=CC50&item= CC(C)NC(c1ccnc(Nc2ccc(C#N)cc2)n1)c1ccc(-c2ccc(C#N)cc2)cc1OC(F)(F)F (centres undefined)
[reply] 23

[ask] GET /values?readout=CC50&item= N#Cc1ccc(Nc2nccc(/C(=N/N)c3ccc(-c4ccc(C#N)cc4)cc3C(F)(F)F)n2)cc1
[reply] 68

[ask] GET /values?readout=CC50&item= CNC(c1ccnc(Nc2ccc(C#N)cc2)n1)c1ccc(-c2ccc(C#N)cc2)cc1C (centres undefined)
[reply] 12

[ask] GET /values?readout=CC50&item= CCNC(c1ccnc(Nc2ccc(C#N)cc2)n1)c1ccc(-c2ccc(C#N)cc2)cc1OC (centres undefined)
[reply] 20

[ask] GET /values?readout=CC50&item= COc1cc(-c2ccc(C#N)cc2)ccc1C(NC1CC1)c1ccnc(Nc2ccc(C#N)cc2)n1 (centres undefined)
[reply] 123

[ask] GET /values?readout=CC50&item= N#Cc1ccc(Nc2nccc(/C(=N/N)c3ccc(-c4ccc(C#N)cc4)cc3OC(F)(F)F)n2)cc1
[reply] 171
